// data source = the nanobody polyreactivity screen of Harvey et al. (2022)

- Protocol Description: yeast display, Sf9 membrane polyspecificity reagent, FACS + sequencing; frameworks hold sequencing errors
Measured Parameter: polyreactivity (PSR sort gate)

INSERT INTO results (biosequence, measured_parameter, reported_value) VALUES
  ('QVQLVESGGGLVQAGGSLRLSCAASGRTFRRNAMGWYRQAPGKERELVASINRGGGTNYADSVKGRFTISRDNAKNTVYLQMNSLKPEDTAVYYCAAGPGTYWGYDYWGQGTQVTVSS', 'polyreactivity (PSR sort gate)', 'low polyreactivity'),
  ('QVQLVESGGGLVQAGGSLRLSCAASGRTFSRYAMGWYRQAPGKERELVASITSRGGSTYYADSVKGRFTISRDNAKNTVYLQMNSLKPEDTAVYYCNVKPTYSTRYWEDYWGQGTQVTVSS', 'polyreactivity (PSR sort gate)', 'high polyreactivity'),
  ('QVQLVESGGRLVQAGGRLRLSGAASGSNFTDNAMGWYRQAPGKERELVAGISERGSSTYYADSVKGRFTISRDNAKNTVYLQMNSLKRVDTAVYYCSAEDVGRYWSSTHNWARGDYWGQGTQVTVSS', 'polyreactivity (PSR sort gate)', 'low polyreactivity'),
  ('QVQIVESGGGLVQAGGSLRLCCAASGRTFYGSKMGWYRQAPGKESELVAAISRNGASTFYADSVKRRFTISRDNAKKSVYLQINILKPEYTGVYYFNARSWRHTDTSFEYWGQGTQVTVSS', 'polyreactivity (PSR sort gate)', 'high polyreactivity');

Asked: // returns reported polyreactivity (PSR sort gate) for input "QVQLVESGGGLVQAGGSLRLSCAASGITLALYAMGWYIQAPGKERELVAAISWTGGSTYYADSVKGRFTISRDNAKNTVYLQMNSLKPEDPAVYYCNAVPGPPHSYLGGDYWGQGTQVTVSS"
Given back: high polyreactivity

Asked: // returns reported polyreactivity (PSR sort gate) for input "QVQLVESGGGLVQAGGSLRLSCAASGGTFPSYAMGWYRQAPGKERELVAAISWSGGRTYYADSVKGRFTISRDNAKNTVYLQMNSLKPEDTAVYYCNADDYGYSFNYWGQGTQVTVSS"
Given back: high polyreactivity

Asked: // returns reported polyreactivity (PSR sort gate) for input "QVQLVESGGGLVQAGGSLRLSCAASGSIFSRNAMGWYRQARGKERELVAAISWRGGSTYYADSVKGRFTISRDNAKNTGYLQMNSLKPEDTAVYYCAAVYQFIKWGDRYEYWGQGTQVTVSS"
Given back: high polyreactivity

Asked: // returns reported polyreactivity (PSR sort gate) for input "QVQLVESGGGLVQAGGSLRLSCAASGSTFGSYAMGWYRQAPGKERELVAAITASGGSTYYADSVKGRFTISRDNGKNTVYLQMKSLKPEDTAVYYCAADTTYIPLSIEYDYWGQGTQVTVSS"
Given back: low polyreactivity

====

- Protocol Description: yeast display, Sf9 membrane polyspecificity reagent, FACS + sequencing; frameworks hold sequencing errors
Measured Parameter: polyreactivity (PSR sort gate)

Solved cases below.
INSERT INTO assay_data (biosequence, reported_value) VALUES
  ('QDQLVESGGGLVQAGGSLRLSCAASGFIFNYYGMGWYRQAPGKERELVATISRGASTNYADSVKGRFTISRDNAKNTVYLQMNSLKPEDTAVYYCAKDYGDWGQGTQVTVSS', 'low polyreactivity'),
  ('QVQLVESGGGLVQAGGSLRLSCAASGRTFVYYAMGWYRQAPGKERELVARISYSGGSTYYADSVKGRFTISRDNAKKTVYLQMNSLKPEDTAVYYCSQAGYSPVYGYWGQGTQVSVSS', 'high polyreactivity'),
  ('QVQLVESGGGLVQAGGSLRLSCAASGSIFTWYAMGWYRQAPGKERELVAAITRGGSTYADSVKGRFTISRDNAKYTVYLQMNSLKPEDTAVYYCNAVYGVYDFNYWGQGTQVTVSS', 'low polyreactivity'),
  ('QVQLEESGGGLVQAGGSLRLSCAASGRTSYSNAMGSYRQAPGQERELVAGITYRGGSTYYADSVKGRFTISRDNAKNTVYLQMNSLKPEDTAVYDCAVKYSWQSRFNYWGQGTQVTVSS', 'high polyreactivity');

// moving on: another record for polyreactivity (PSR sort gate)
Asked: // returns reported polyreactivity (PSR sort gate) for input "QVQLVESGGGLVQAGGSLRLSCAASGSIFYHYAMGWYRQAPGKERELVAAISRSGGRTYYADSVKGRFTISRDNAKNTVYLQMNSLKPEDTAVYYCAAGTSWPWYQRDYWGQGTQVTVSS"
Given back: low polyreactivity

====

- Protocol Description: yeast display, Sf9 membrane polyspecificity reagent, FACS + sequencing; frameworks hold sequencing errors
Measured Parameter: polyreactivity (PSR sort gate)

INSERT INTO results (biosequence, reported_value) VALUES
  ('QVQLVESGGGLVQAGGSLRLSCAASGRIFYVYGLGWYRQEPGKERELVAAISKRGDNTYYADSVKGRFTISRDNSKNTVYLQMNSLKPEDTAVYYCKVKRYGGRSDYWGQGTQVTVSS', 'high polyreactivity'),
  ('QVQLVESGGGLVQAGGSLRLSCAASGRIFVRNAMGWYRQAPGKEREMVAAISASGGSTYYADSVKGRFTISRDNAKNTVYLLMNSLKPEDTAVYYCNAYRAYYDLAYGYWGQGTQVTVSS', 'high polyreactivity'),
  ('QVQLVESGGGLVQAGGSLRLSCAASGRIFTRNAMGWYRQAPGKERELVAAITSGGSTNYADSVKGRFTISRDNAKNTVYLQMNSLKPEDTAVYYCNAVYYPYRIWGRVRPSYGYWGQGTQVTVSS', 'high polyreactivity');

====

- Protocol Description: yeast display, Sf9 membrane polyspecificity reagent, FACS + sequencing; frameworks hold sequencing errors
Measured Parameter: polyreactivity (PSR sort gate)

Solved cases below.
INSERT INTO assay_data (biosequence, measured_parameter, reported_value) VALUES
  ('QVQLVESGGGLVQAGGSLRLSCAASGSIFKVNTMGWHRQAPGTERELVAAISSSDDSTYYADSVKGRFTISRDNAKNTVYLQMNSLKPEDTAVYYCAADGSSVDSGGINDEYWGQGTQVTVSS', 'polyreactivity (PSR sort gate)', 'low polyreactivity'),
  ('QVQLVESGGGLVQAGGSLRLSCAASGSTFQYYAMGWYRQAPGKERELVDAISPSVDTTFYADSVKGRFTISRDNAKNTVYLQMNSLKPEDTAVYFCAKRYVDPLGSGTLGSWGQGTQVTVSS', 'polyreactivity (PSR sort gate)', 'low polyreactivity'),
  ('QVQLVESGGGLVQAGGSLRLSCAASGIIFTYNAMGWYRQPPGKERELVAAISASGSSTYYADSVKGRFTISLDNAKNTVYLQMNSLKPEDTAVYYCAARTRRGLARYDYWGQGTQGTVSS', 'polyreactivity (PSR sort gate)', 'high polyreactivity'),
  ('QVQLVESGGGLVQAGGSLLLSCAASGRIFFTNAMGWYRQAPRKERELVAAISKSGARTYYADSVKGRFTISRDKAKNTVYLQMNSLKPEDTAVYYCATDYAFPQYDDWGQGTQVTVSS', 'polyreactivity (PSR sort gate)', 'high polyreactivity'),
  ('QVQLVESGGGLVQAGGSLRLSCAASGSIFTYNAMGWYRQAPGKERELVAAISSRGTSTYYADSVKGRFTISRDNAKNTVYLQMNSLKPEDTAVYYCAAVWVSQRRPWGNTNNYWGQGTQVTVSS', 'polyreactivity (PSR sort gate)', 'high polyreactivity'),
  ('QVQLVESGGGLVKAGGSLRLICAASGFTFRAYAMGWYRQAPGTERELVAAINRRGGRTYYADSVKGRFTISRDNAKNTVYLQMNSLKPEDTAVYYCAAVKSGPSKGVGPPATAYDYWGQGTQVTVSS', 'polyreactivity (PSR sort gate)', 'high polyreactivity'),
  ('QVQLVESGGGLVQAGGSLRLSCAASGITFRHNAMGWYRQAPGKERELVAAISRRTYYSDSVKGRFTISRDNAKNTVYLQMNSLKPEDTAVYYCAKDVDYVSDSPYDYWGQGTQVTVSS', 'polyreactivity (PSR sort gate)', 'low polyreactivity'),
  ('QVQLVESGGGFVQAGGSLRLSCAASGLTFWPYVMGWYRQAPGKERELVAAIDDTGITYYADSVKGRFTISRDNAKNTVYLQMNSLKPEDTAVYYCATDWDYYFPWIYPSDAGPEDGYWGQGTQVTVSS', 'polyreactivity (PSR sort gate)', 'low polyreactivity'),
  ('QVQLVESGGGLVQAGGSLRLSCAASGSIFYLYAMGWYRQAPGKERELVATISLSSGSTYAASVKGRFTISRDNAKNTVYLQMNSLKPEDTAVDYCAKDLTRWGYNEYDYWGQGTQVSVSS', 'polyreactivity (PSR sort gate)', 'low polyreactivity'),
  ('QVQLVESGGGLVQAGGSLRLSCAASGITFSRNPMGWYRQAPGKEWELVAAISWSGGSTYYADSVKGRYTISRDNAKNTVYLQMNSLKPEDTAVYYCNVGRRERLEGGYWGQGTQVTVSS', 'polyreactivity (PSR sort gate)', 'high polyreactivity');

Asked: // returns reported polyreactivity (PSR sort gate) for input "QVQLVESGGGLVQAGGSLRLSCAASGIIFNSNAMGWYRQAPGKERELVAGISRGSSTSYADSVKGRFTISRDNAKNPVYLQMNSLKPADNAVYFCNAEVYSPQQFTPPDRYYYWGQGTQVTVSS"
Given back: low polyreactivity

Asked: // returns reported polyreactivity (PSR sort gate) for input "QVQLVESGGGLVQAGGSLRLSCAASGSIYPGNAMGWYRQAPGKERELVAVIDFSGASTYYADSVKGRFTISRDNAKNTVYLQMNSLKPEDTADYWGQGTQVTVSS"
Given back: low polyreactivity

Asked: // returns reported polyreactivity (PSR sort gate) for input "QVQLVESGVVLVEAGGSLRLSCAASGRILSVYAMGWYRQAPRKERELVAAIRRGVGSTYYADSVKGRFTISRDNAKNTVYLQMNSLKPEDTADYYCAPYSYHNRIRYDSWGQGTQVTVSS"
Given back: high polyreactivity

Asked: // returns reported polyreactivity (PSR sort gate) for input "QVQLVESGGGLVQAGGSLRLSCAASGSILDPNAMGWYRQAPGKERELVAAISSSGGSTYYADSVKGRFTISRDNAKNTVYLQMNSLKPEDTAVYYCAADHFIPIYSKYDYWGQGTQVTVSS"
Given back: high polyreactivity

Asked: // returns reported polyreactivity (PSR sort gate) for input "QVQLVESGGGLVQAGGSLRLSCAASGFTIRWYTMGWYRQAPGKERELVAAISRGGSTNYADSVKGRFTISRDNAKNTVYLQMNSLKPEDTAVYYCNAVRGGRYGLDYWGQGTQVTVSS"
Given back: high polyreactivity

Asked: // returns reported polyreactivity (PSR sort gate) for input "QVQLVESGGGLVQAGGSLRLSCAASGFTFYSYAMGWYRQAPGKERELVAVISKRGGSTRYADSVKGRFTISRDNAKNTVYLQMNSLKPEDTAVYYCNADQHSITYNEFDYWGQGTQVTVSS"
Given back: low polyreactivity

Asked: // returns reported polyreactivity (PSR sort gate) for input "QVQLVESGGGLVQAGGSLRLSCASSGLIFGANAMGWYRQAPVKARELVAVITSDGSTDYADSVKGRFIISRDNAKNTVYLQMNSLKPEDTAVYYCATTFYLIFGYTYSAYYYWGHGTQVTVSS"
Given back: high polyreactivity

Asked: // returns reported polyreactivity (PSR sort gate) for input "QVQLVESGGGLVQAGGSLRLSCAASGSIFDRNAMGWYRQAPGKERELVAAITSGGSTYYADSVKGRFTISRDNAKNTVYLQMNSLKPEDTAVYYCNADTDPPVPLYYWGQGTQVTVSS"
Given back: low polyreactivity

Asked: // returns reported polyreactivity (PSR sort gate) for input "QVQLVESGGGLVQAGGSLRLSCAASGRNYWVYAMGWYREAPGKERELVASIDSGSRTTYADSVKGRFTISRDNAKNTVYLQMISLKQEDTAVYYSATSSYTYSPRVWYRWRRDYWGQGTQVNVSS"
Given back: high polyreactivity

Asked: // returns reported polyreactivity (PSR sort gate) for input "HVQLQESGGGLVQEGGSLRLSCAASGSIFQATYMGWYRQAPGKELEFVASITYGSITNYADSVKGSFTIGRDNAKDTLYLQMNSLKPEDTAVYYCAVDRHYIPDFHYWGQGTQVTVSS"
Given back: low polyreactivity

Asked: // returns reported polyreactivity (PSR sort gate) for input "QVQHVESRGGLVQAGGSLRLSCAASGIIFRYAMGWYRQAPGKERELVAAIRKSDGSTYYADSVKGRFTISRDNAKNTFYLQMNSLKPEDTAVYYCATDIGYGNRKGFYYWGQGSQVTVSS"
Given back: high polyreactivity
